Target: Recombinant STAT6 protein (STAT6(W123-T658)) (Homo sapiens)
Construct: Recombinant STAT6 protein (STAT6(W123-T658))
Sequence (P42226 123-658): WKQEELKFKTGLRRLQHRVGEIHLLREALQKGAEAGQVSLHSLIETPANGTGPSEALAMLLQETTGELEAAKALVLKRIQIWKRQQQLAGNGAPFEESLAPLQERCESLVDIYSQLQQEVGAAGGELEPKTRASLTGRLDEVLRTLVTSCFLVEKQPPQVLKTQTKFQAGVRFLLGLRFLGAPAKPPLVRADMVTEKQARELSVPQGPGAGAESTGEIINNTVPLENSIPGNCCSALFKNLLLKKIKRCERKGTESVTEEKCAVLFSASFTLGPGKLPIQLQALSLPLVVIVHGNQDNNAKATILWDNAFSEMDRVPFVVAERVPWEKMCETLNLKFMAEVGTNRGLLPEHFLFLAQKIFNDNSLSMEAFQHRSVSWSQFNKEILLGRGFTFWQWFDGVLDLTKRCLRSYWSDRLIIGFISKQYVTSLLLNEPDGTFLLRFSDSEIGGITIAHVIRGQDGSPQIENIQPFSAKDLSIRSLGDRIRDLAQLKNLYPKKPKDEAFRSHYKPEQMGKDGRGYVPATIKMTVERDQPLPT
Experiment: STAT6 Fluorescence Polarization (FP) Assay
Details: STAT6(W123-T658) 250 nM, probe 5-FAM-ApYKPFQDLI-NH2 2 nM, 45-minute incubation
pIC50: −log10 of the molar value.
List of pIC50 values.

# annotated cases, reported pIC50 shown
[[record]]
molecule = "Cc1ccc2[nH]nc(C(=O)N3CC[C@H]4CC[C@@H](C(=O)N(C)C5CC5)N4C(=O)[C@@H](NC(=O)c4ccc5ccc(C(F)(F)P(=O)(O)O)cc5c4)C3)c2c1"
test_system = "Recombinant STAT6 protein (STAT6(W123-T658)) (Homo sapiens)"
data_value = "≥ 6.52"

[[record]]
molecule = "CC(=O)N1CC[C@H]2CC[C@@H](C(=O)N(C)c3ccc(OCCN(C)C)cc3)N2C(=O)[C@@H](NC(=O)c2cc3cc(C(F)(F)P(=O)(O)O)ccc3s2)C1"
test_system = "Recombinant STAT6 protein (STAT6(W123-T658)) (Homo sapiens)"
data_value = "5.52 to 6.52"

[[record]]
molecule = "Cc1ccc2onc(C(=O)N3CC[C@H]4CC[C@@H](C(=O)N5C[C@@H](C#N)[C@H](c6ccccc6)C5)N4C(=O)[C@@H](NC(=O)c4ccc5ccc(C(F)(F)P(=O)(O)O)cc5c4)C3)c2c1 (single isomer, unassigned)"
test_system = "Recombinant STAT6 protein (STAT6(W123-T658)) (Homo sapiens)"
data_value = "≥ 6.52"

[[record]]
molecule = "O=C(N[C@H]1CN(C(=O)CCc2ccccc2)CC[C@H]2CC[C@@H](C(=O)Nc3ccc(-c4ccccc4)cc3)N2C1=O)c1cc2cc(C(F)(F)P(=O)(O)O)ccc2[nH]1"
test_system = "Recombinant STAT6 protein (STAT6(W123-T658)) (Homo sapiens)"
data_value = "≥ 6.52"

[[record]]
molecule = "CC(=O)N1CC[C@H]2CC[C@@H](C(=O)N3CC(c4cc[nH]c(=O)c4)CC34CC4)N2C(=O)[C@@H](NC(=O)c2ccc3ccc(C(F)(F)P(=O)(O)O)cc3c2)C1 (stereo partly drawn)"
test_system = "Recombinant STAT6 protein (STAT6(W123-T658)) (Homo sapiens)"
data_value = "≥ 6.52"


Note: attention shifts to another entry.
Query: Kindly state the measured pIC50 obtained for Cc1ccc2[nH]nc(C(=O)N3CC[C@H]4CC[C@@H](C(=O)N5C[C@H](c6ccccc6)[C@@H](C#N)C5)N4C(=O)[C@@H](NC(=O)c4ccc5ccc(C(F)(F)P(=O)(O)O)cc5c4)C3)c2c1 (relative stereo) with Recombinant STAT6 protein (STAT6(W123-T658)) (Homo sapiens).
Response: ≥ 6.52

Source: patent US20250179103A1
